# System: SW-620
# run description: NCI tumour cell line growth inhibition, 48 h
Activity calls are given as the source filed them. Cut-off read from the data, not from the text of the source: active = GI50 up to about 1.1 µM and inactive = higher.
A correct response names exactly one class from active, inactive

Solved cases below.
Cc1cc(Cl)ccc1NC(=O)C1C(=O)C(=O)N(c2ccc(Cl)cc2C)C1=O (stereo not given) ... inactive
N/C(=N\Nc1nc2cc([N+](=O)[O-])ccc2o1)c1ccccn1 ... active
CC(C)OCC(O)COc1ccc2ccc(=O)oc2c1 (stereo not given) ... inactive
CCOC(=O)N1CCC(=C2c3ccc(Cl)cc3CCc3cccnc32)CC1 [LORATADINE] ... inactive
O=C1NCC2(CCNCC2)N1 ... inactive
O=C1c2ccccc2C(=O)N1CCSCC(CO)SCCN1C(=O)c2ccccc2C1=O (stereo not given) ... inactive

Exercise: Status in this test for N#Cc1c(-c2ccccc2)cc(-c2ccccc2)n(C2OCC(O)C(O)C2O)c1=S (stereo not given) ?
Solution: inactive

Exercise: Just curious, what result did CO/N=C(\C)CCC#Cc1ccccc1C(=O)OC get here?
Solution: inactive

Exercise: Please state the recorded outcome for this compound: O=C(O[C@H]1[C@@H](O)[C@H](n2cnc3c(Cl)ncnc32)O[C@@H]1COC(c1ccccc1)(c1ccccc1)c1ccccc1)c1ccccc1
Solution: inactive

Exercise: Which outcome was assigned to CCN(CC)C1Oc2cc3c(cc2C(c2cc(OC)c(O)c(OC)c2)C1C)OCO3 (stereo not given) in this test?
Solution: inactive
